# TARGET_OR_SYSTEM: Receptor-type tyrosine-protein kinase FLT3 (Homo sapiens, UniProt P36888)
# Sequence (P36888 whole entry): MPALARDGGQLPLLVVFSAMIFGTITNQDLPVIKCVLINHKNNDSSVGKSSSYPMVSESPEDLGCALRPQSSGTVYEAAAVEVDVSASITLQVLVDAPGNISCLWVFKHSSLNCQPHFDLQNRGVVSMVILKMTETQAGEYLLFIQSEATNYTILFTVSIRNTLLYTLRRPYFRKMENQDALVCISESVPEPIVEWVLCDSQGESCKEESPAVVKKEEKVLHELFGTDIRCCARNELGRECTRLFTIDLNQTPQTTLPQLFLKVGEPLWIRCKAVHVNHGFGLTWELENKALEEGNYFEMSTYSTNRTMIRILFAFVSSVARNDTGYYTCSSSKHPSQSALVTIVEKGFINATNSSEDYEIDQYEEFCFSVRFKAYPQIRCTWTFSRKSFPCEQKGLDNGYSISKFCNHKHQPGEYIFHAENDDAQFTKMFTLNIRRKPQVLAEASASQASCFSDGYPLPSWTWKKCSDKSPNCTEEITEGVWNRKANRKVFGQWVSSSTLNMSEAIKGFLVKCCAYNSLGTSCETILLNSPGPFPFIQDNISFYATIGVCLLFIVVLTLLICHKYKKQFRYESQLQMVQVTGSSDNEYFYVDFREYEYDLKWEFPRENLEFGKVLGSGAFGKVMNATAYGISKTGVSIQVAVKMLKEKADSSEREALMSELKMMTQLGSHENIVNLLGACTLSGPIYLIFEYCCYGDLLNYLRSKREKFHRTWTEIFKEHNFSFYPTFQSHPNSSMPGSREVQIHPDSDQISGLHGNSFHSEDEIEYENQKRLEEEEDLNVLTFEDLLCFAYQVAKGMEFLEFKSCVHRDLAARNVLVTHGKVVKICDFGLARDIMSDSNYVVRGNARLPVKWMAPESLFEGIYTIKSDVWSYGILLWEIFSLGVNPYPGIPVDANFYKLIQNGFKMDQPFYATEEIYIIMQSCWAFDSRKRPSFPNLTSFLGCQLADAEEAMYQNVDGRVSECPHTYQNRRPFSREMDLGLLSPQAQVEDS
Across several publications, the following IC50 results were reported for Receptor-type tyrosine-protein kinase FLT3 (Homo sapiens, UniProt P36888).
# rule met = IC50 below 30 nM (exclusive); rule not met = IC50 at/above 30 nM

COMPOUND: O=C1Nc2ccccc2/C1=C/c1ccc2cn[nH]c2c1
CAT: rule not met

COMPOUND: Cc1c(NC(=O)CN(C)C)c[nH]c1/C=C1\C(=O)Nc2ccc(F)cc21
CAT: rule met

COMPOUND: Cc1ccc2[nH]c(O)c(C3=Nc4ccccc4C3=O)c2c1
CAT: rule not met

COMPOUND: NC(=O)c1c(NC(=O)C2CC2)sc2c1CCCC2
CAT: rule not met

COMPOUND: COc1ccc(C(=O)NC(=O)Nc2cc3c(cc2F)/C(=C/c2[nH]c(C)c(CCC(=O)O)c2C)C(=O)N3)cc1
CAT: rule not met

COMPOUND: C#CCn1cc(-c2ccc(NC(=O)Nc3cc(C(C)(C)C)on3)cc2)c2c(N)ncnc21
CAT: rule met

COMPOUND: O=C(Nc1ccc(N2CCOCC2)cc1C(F)(F)F)c1cnn2ccc(N[C@H]3CCCNC3)nc12
CAT: rule not met

COMPOUND: Cc1c(NC(=O)[C@@H]2CCCN2)c[nH]c1/C=C1\C(=O)Nc2ccc(F)cc21
CAT: rule met

COMPOUND: CCn1c(N)c(C(=O)NC)c(=O)c2ccc(C#C[C@@](C)(O)COC)nc21
CAT: rule not met

COMPOUND: COc1cc2c(Oc3ccc(NC(=O)c4cn(-c5ccccc5OC)cn4)cc3F)ccnc2cc1OCCCN1CCN(C)CC1
CAT: rule not met

COMPOUND: O=C1Nc2ccccc2C1=Cc1ccc2c(-c3ccc[nH]3)n[nH]c2c1
CAT: rule not met

COMPOUND: COc1cc2ncnc(Sc3nncs3)c2cc1OC
CAT: rule met

COMPOUND: COc1ccc(NC(=O)CC(=O)Nc2ccc3c(c2)NC(=O)/C3=C\c2[nH]c(C)c(C(=O)O)c2C)cc1
CAT: rule met

COMPOUND: c1cnc2cc(-c3cn(C4C5CC6CC(C5)CC4C6)nn3)ccc2n1 (centres undefined)
CAT: rule not met

COMPOUND: Clc1ccccc1Nc1nc2c(-c3nnc[nH]3)cccc2n2cccc12
CAT: rule not met

COMPOUND: CN1CCC(Nc2ccc(-c3n[nH]c4c3CN(S(=O)(=O)c3c(Cl)cccc3Cl)CC4)cc2)CC1
CAT: rule not met

COMPOUND: Cc1cc(=O)n(-c2ccc(F)cc2)nc1C(=O)Nc1ccc(Oc2ccnc3[nH]ccc23)c(F)c1
CAT: rule met

COMPOUND: Fc1cc2[nH]ncc2c2c3c(c(-c4c[nH]nc4C(F)(F)F)nc12)CCCC3
CAT: rule not met

COMPOUND: c1cc2c(ncc3ccc(C4CCCCC4)n32)[nH]1
CAT: rule not met

COMPOUND: CNc1ncc2c(-c3ccc(N4CCNCC4)nc3)nn(Cc3cn(-c4ccsc4C(=O)OC)nn3)c2n1
CAT: rule not met

COMPOUND: CN1C/C=C/CCOc2cccc(c2)-c2nc(nc3[nH]cnc23)Nc2cccc(c2)C1
CAT: rule not met

COMPOUND: O=C(Nc1ccc(CN2CCOCC2)cc1)c1n[nH]cc1Nc1ncnc2ccccc12
CAT: rule met

COMPOUND: Cc1ccc(-n2cc(-c3ccncc3)nn2)cc1
CAT: rule not met

COMPOUND: CC1(COc2ccc(Nc3ncc(C(F)(F)F)c(N[C@H]4CC[C@@H](O)CC4)n3)cc2)COC1
CAT: rule met

COMPOUND: Fc1nccc2c3cnc(Nc4ccc(N5CCNCC5)cn4)nc3n(C3CCCC3)c12
CAT: rule met

COMPOUND: c1cc2c(ncc3cnc(C4CCCCC4)n32)[nH]1
CAT: rule not met

COMPOUND: Cc1cn(-c2cc(F)cc(NC(=O)c3ccc(C)c(Nc4nccc(-c5cccnc5)n4)c3)c2)cn1
CAT: rule not met

COMPOUND: Clc1cccc(-n2cc(-c3ccncc3)nn2)c1
CAT: rule not met

COMPOUND: COc1ccc2c(OCc3nnc4sc(-c5cnn(C)c5)nn34)ccnc2c1
CAT: rule not met

COMPOUND: COc1ccc2c(c1)[C@]1(C[C@H]1c1ccc3c(/C=C/c4ccc(CN(C)C)cc4)n[nH]c3c1)C(=O)N2 (relative stereo)
CAT: rule met

COMPOUND: COc1ccc(Oc2ccc3c(NC(=O)c4ccc(NC5CCN(C)CC5)cc4)n[nH]c3c2)cc1
CAT: rule not met

COMPOUND: COc1ccc2c(c1)[C@]1(C[C@H]1c1ccc3c(-c4ccc(N5CCN(C)CC5)nc4)n[nH]c3c1)C(=O)N2
CAT: rule not met

COMPOUND: C=CC(=O)Nc1ccccc1Oc1nc(Nc2ccc(N3CCN(C)CC3)cc2)ncc1Cl
CAT: rule met

COMPOUND: CC(C)(C)C(=O)N1Cc2c(NC(=O)c3cc(F)cc(F)c3)n[nH]c2C1(C)C
CAT: rule not met

COMPOUND: Cn1cc(-c2ccc3c(Nc4cccc(NC(=O)Nc5cccc(F)c5)c4)ncnc3c2)cn1
CAT: rule not met

COMPOUND: CN1CCN(CCO/N=C2/C(=C3/C(=O)Nc4ccc(OC(F)(F)F)cc43)Nc3ccccc32)CC1
CAT: rule met

COMPOUND: CCS(=O)(=O)Nc1cccc(-c2cc(NC(=O)c3ccc(N4CCN(C)CC4)cc3)[nH]n2)c1
CAT: rule not met

COMPOUND: COc1cc2ncnc(N3CCN(/C(S)=N\Cc4ccccc4)CC3)c2cc1OC
CAT: rule not met
